System: Muscarinic acetylcholine receptor M1 (Oryctolagus cuniculus)
KA class ranges: band A: < 0.8 µM; band B: ≥ 0.8 µM and < 20 µM; band C: ≥ 20 µM

compound: CN(CC#CC[N+](C)(C)C)C(=O)Nc1cccc(Cl)c1
assigned-label: band C

compound: C[C@H](C#CC[N+](C)(C)C)OC(=O)Nc1ccc(Cl)cc1
assigned-label: band A

compound: CC(C#CC[N+](C)(C)C)OC(=O)Nc1ccc(Cl)cc1 (racemic)
assigned-label: band A

compound: CC(C#CC[N+](C)(C)C)N(C)C(=O)Cc1cccc(Cl)c1 (stereo not given)
assigned-label: band C

compound: CC(C#CC[N+](C)(C)C)OC(=O)Nc1cccc(Cl)c1 (racemic)
assigned-label: band B

compound: C[C@@H](C#CC[N+](C)(C)C)OC(=O)Nc1ccc(Cl)cc1
assigned-label: band A

compound: CC(C#CC[N+](C)(C)C)N(C)C(=O)Nc1cccc(Cl)c1 (stereo not given)
assigned-label: band C

compound: C[C@@H](C#CC[N+](C)(C)C)OC(=O)Nc1cccc(Cl)c1
assigned-label: band B
